assay: solvent given as SMILES; settings: in CCCCCCCCCC
TEST_READOUT: solvation free energy, 298 K

Oc1ccc2ccccc2c1
-36 kJ/mol
c1ccc2cc3ccccc3cc2c1
-43 kJ/mol
CCO
-9.41 kJ/mol
CC(C)CCCO
-20 kJ/mol
CCCCC
-13.2 kJ/mol
CC(C)C(C)C(C)C
-20.3 kJ/mol
CCCCCC
-16 kJ/mol
C=CC
-7.03 kJ/mol
c1cc2ccc3cccc4ccc(c1)c2c34
-49.3 kJ/mol
CCOC(C)=O
-13.7 kJ/mol
Oc1ccc(Cl)cc1Cl
-28.4 kJ/mol
Oc1ccc(Cl)cc1
-28.8 kJ/mol
CCC(C)CCO (centres undefined)
-20 kJ/mol
CCCCCCCC
-21.8 kJ/mol
Oc1ccccc1
-23 kJ/mol
CC(C)CC(C)O (centres undefined)
-19.1 kJ/mol
CCC(C)C(C)O (centres undefined)
-20.1 kJ/mol
CCCCCOC(C)=O
-22.5 kJ/mol
CC(=O)OC(C)C
-15.9 kJ/mol
c1ccc2c(c1)Sc1ccccc1S2
-47.1 kJ/mol
CCc1ccc2c(c1)C(=O)c1ccccc1C2=O
-50.4 kJ/mol
CCC(C)(C)OC
-17.4 kJ/mol
Br
-4.56 kJ/mol
C=C(C)C
-9.87 kJ/mol
CCCCC(C)=O
-19.3 kJ/mol
c1ccc(-c2ccccc2)cc1
-35.5 kJ/mol
CCCCCCCCC
-24.6 kJ/mol
Cc1cc(C)c(C)cc1C
-29.6 kJ/mol
O=[N+]([O-])c1cc[n+]([O-])cc1
-30 kJ/mol
Oc1cccc2ccccc12
-36.7 kJ/mol
CC(C)CCC(C)C
-19.8 kJ/mol
CC(C)=O
-10.3 kJ/mol
Oc1ccccc1F
-19.2 kJ/mol
CC(O)CC(C)(C)C (centres undefined)
-22.3 kJ/mol
CCc1ccccc1
-21.9 kJ/mol
CCC(=O)OC
-14.6 kJ/mol
CCC(C)(O)C(C)C (centres undefined)
-22.3 kJ/mol
CC(=O)C(C)(C)C
-17.4 kJ/mol
CC(C)(c1ccc(O)cc1)c1ccc(O)cc1
-53.6 kJ/mol

* * *

Below: a set of entries, each annotated with reported solvation free energy, 298 K.
assay: solvent given as SMILES; settings: in CCCCCCCCC=CCCCCCCCC(=O)OCC(COC(=O)CCCCCCCC=CCCCCCCCC)OC(=O)CCCCCCCC=CCCCCCCCC
TEST_READOUT: solvation free energy, 298 K (kcal/mol)

CCCCCCCC
-4.75
Clc1c(Cl)c(Cl)c(-c2c(Cl)c(Cl)c(Cl)c(Cl)c2Cl)c(Cl)c1Cl
-14.6
O=[N+]([O-])c1c(Cl)c(Cl)cc(Cl)c1Cl
-10.8

* * *

assay: solvent given as SMILES; settings: in CCCCN(C=O)CCCC
Below: a set of entries, each annotated with reported solvation free energy, 298 K.
TEST_READOUT: solvation free energy, 298 K (kcal/mol)

CCCCCCC
-3.9
C1CCOC1
-3.89
CCOC(C)=O
-3.96
CC#N
-4.08
CCC(C)(C)OC
-4.11

* * *

test: solvent given as SMILES; settings: in CN(C)C=O
Binary call on solvation free energy, 298 K: 1 from -6 kcal/mol upward, -1 beneath that.

CC(F)F
1
c1cc2ccc3cccc4ccc(c1)c2c34
-1
C[N+](=O)[O-]
1
CCC(C)(C)OC
1
C=CC
1
CCCCCCCC
1
O=C(O)Cc1ccccc1Nc1c(Cl)cccc1Cl
-1
CC=C(C)C
1
O=C(O)c1ccc(I)cc1
-1
CCCCCCCCCCCCCCCCCCCC
-1
CCI
1
CI
1
c1ccc2ccccc2c1
-1
